Reference for the values: patent US8546389B2

Molecular target: genotype 3a (VRL-69) NS5bΔ21 polymerase (Hepatitis C virus genotype 3a)
Sequence (Q81258 whole entry, looked up, stated change not applied): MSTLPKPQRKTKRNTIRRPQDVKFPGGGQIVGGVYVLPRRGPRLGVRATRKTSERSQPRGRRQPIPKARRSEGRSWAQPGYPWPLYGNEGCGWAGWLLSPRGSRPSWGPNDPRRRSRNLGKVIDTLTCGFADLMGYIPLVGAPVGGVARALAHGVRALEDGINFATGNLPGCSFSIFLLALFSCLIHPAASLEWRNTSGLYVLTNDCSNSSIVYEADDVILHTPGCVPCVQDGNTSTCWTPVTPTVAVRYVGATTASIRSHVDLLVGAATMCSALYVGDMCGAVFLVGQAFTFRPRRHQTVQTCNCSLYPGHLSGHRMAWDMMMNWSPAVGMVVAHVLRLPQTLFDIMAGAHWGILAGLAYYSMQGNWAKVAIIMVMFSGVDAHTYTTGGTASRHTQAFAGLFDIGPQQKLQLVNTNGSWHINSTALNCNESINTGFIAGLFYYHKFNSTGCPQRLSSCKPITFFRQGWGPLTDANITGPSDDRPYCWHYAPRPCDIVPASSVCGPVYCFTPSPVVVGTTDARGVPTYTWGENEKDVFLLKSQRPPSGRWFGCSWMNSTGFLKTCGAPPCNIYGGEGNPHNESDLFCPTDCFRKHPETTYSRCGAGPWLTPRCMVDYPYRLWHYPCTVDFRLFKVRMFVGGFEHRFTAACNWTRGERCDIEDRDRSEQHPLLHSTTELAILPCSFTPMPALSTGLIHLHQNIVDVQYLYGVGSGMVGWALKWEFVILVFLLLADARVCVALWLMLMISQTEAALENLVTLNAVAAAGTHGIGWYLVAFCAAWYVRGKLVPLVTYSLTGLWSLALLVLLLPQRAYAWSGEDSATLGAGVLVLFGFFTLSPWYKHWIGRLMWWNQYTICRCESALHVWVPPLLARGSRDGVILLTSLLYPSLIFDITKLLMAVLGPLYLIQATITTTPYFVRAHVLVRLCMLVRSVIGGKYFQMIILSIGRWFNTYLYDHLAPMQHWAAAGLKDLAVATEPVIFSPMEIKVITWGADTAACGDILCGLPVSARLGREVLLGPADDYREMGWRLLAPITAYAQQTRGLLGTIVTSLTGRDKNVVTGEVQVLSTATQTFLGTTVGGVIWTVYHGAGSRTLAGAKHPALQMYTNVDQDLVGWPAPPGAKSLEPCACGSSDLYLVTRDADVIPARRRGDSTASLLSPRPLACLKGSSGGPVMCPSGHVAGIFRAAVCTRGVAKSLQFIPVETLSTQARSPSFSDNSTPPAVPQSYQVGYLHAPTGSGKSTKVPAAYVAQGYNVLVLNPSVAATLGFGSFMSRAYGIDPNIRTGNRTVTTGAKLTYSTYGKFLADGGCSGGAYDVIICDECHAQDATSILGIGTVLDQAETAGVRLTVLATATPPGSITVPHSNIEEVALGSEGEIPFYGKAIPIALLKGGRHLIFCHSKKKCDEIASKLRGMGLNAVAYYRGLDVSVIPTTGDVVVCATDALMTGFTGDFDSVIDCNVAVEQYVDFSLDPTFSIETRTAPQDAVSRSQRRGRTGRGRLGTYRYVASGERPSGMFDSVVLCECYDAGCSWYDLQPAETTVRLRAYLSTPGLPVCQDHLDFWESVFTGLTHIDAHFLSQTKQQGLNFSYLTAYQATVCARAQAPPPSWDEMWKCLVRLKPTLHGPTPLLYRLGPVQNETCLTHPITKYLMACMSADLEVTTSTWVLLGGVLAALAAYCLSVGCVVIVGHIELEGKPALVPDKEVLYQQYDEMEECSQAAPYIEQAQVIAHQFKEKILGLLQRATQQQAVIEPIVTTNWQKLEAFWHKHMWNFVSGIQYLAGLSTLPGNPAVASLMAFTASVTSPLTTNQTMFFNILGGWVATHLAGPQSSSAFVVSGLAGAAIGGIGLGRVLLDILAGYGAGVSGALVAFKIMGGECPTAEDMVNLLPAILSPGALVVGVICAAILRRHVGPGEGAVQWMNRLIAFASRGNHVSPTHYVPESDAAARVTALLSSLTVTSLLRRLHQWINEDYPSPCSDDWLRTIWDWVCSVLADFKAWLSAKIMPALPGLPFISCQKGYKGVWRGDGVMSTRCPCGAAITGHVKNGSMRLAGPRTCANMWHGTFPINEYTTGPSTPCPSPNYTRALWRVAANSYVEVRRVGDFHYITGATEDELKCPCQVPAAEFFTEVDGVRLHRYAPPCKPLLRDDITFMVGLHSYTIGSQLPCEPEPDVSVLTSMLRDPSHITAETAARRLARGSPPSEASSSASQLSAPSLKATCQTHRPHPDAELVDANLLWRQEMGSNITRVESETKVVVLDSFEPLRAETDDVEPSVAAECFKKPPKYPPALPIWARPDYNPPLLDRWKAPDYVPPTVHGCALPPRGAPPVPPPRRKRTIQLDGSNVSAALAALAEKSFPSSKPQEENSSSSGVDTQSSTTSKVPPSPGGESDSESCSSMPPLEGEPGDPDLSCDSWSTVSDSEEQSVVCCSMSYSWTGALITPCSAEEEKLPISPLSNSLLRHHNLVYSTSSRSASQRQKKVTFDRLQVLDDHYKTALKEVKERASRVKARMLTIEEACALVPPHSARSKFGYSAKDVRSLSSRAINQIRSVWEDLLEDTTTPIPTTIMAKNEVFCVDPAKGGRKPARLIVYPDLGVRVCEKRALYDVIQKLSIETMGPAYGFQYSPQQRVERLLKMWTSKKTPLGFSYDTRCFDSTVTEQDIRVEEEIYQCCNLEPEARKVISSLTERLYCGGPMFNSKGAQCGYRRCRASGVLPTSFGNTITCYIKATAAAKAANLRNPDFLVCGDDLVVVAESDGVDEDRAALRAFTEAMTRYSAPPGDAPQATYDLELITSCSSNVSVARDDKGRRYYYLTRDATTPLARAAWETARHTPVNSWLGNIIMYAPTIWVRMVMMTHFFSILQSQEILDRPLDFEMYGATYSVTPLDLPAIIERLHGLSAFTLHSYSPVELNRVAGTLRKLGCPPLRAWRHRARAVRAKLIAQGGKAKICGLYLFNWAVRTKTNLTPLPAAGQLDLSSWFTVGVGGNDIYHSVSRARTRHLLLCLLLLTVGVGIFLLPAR
Assay: HCV polymerase inhibition assay, genotype 3a
Type: biochemical, HCV genotype 3a (VRL-69)
Conditions: genotype 3a; read-out: 3a NS5b polymerase IC50
IC50 values by entry
Record the value in nM, omitting the unit from your answer.

See these solved cases before continuing.
Exercise: Look at this compound and give its reported IC50. CNC(=O)c1c2cc(C3CC3)c(N(CCCO)S(C)(=O)=O)cc2nn1-c1ccc(Nc2ccccc2F)cc1
Key: 40

Exercise: Look at this compound and give its reported IC50. CNC(=O)c1c2cc(C3CC3)c(N(CCCNC(=O)c3cccnc3OC)S(C)(=O)=O)cc2nn1-c1ccc(Br)cc1
Key: 40

Exercise: Look at this compound and give its reported IC50. CNC(=O)c1c2cc(C3CC3)c(N(CCCNC(=O)c3ccoc3)S(C)(=O)=O)cc2nn1-c1ccc(Br)cc1
Key: 40

New cases:
Exercise: Look at this compound and give its reported IC50. CNC(=O)c1c2cc(C3CC3)c(N(CCCNC(=O)c3nonc3C)S(C)(=O)=O)cc2nn1-c1ccc(Br)cc1
Key: 30

Exercise: Look at this compound and give its reported IC50. CNC(=O)c1c2cc(C3CC3)c(N(CCCSC)S(C)(=O)=O)cc2nn1-c1ccc(Br)cc1
Key: 20

Exercise: Look at this compound and give its reported IC50. CCCC(=O)NCCCN(c1cc2nn(-c3ccc(Br)cc3)c(C(=O)NC)c2cc1C1CC1)S(C)(=O)=O
Key: 40

Exercise: Look at this compound and give its reported IC50. CNC(=O)c1c2cc(C3CC3)c(N(CCCO)S(C)(=O)=O)cc2nn1-c1ccc(Cl)cc1
Key: 20

Exercise: Look at this compound and give its reported IC50. CNC(=O)c1c2cc(C3CC3)c(N(CCCNC(=O)c3cnn(C)c3C)S(C)(=O)=O)cc2nn1-c1ccc(Br)cc1
Key: 50

Exercise: Look at this compound and give its reported IC50. CCN(c1cc2nn(-c3ccc(Cl)cc3)c(C(=O)NC)c2cc1C1CC1)S(C)(=O)=O
Key: 30

Exercise: Look at this compound and give its reported IC50. CNC(=O)c1c2cc(C3CC3)c(N(CCCNC(=O)c3ccnc(OC)c3)S(C)(=O)=O)cc2nn1-c1ccc(Br)cc1
Key: 60

Exercise: Look at this compound and give its reported IC50. CCN(c1cc2nn(-c3ccc(Nc4ccc(F)cc4)cc3)c(C(=O)NC)c2cc1C1CC1)S(C)(=O)=O
Key: 20

Exercise: Look at this compound and give its reported IC50. CCN(c1cc2nn(-c3ccc(Oc4ccccc4F)cc3)c(C(=O)NC)c2cc1C1CC1)S(C)(=O)=O
Key: 20

Exercise: Look at this compound and give its reported IC50. CNC(=O)c1c2cc(C3CC3)c(N(CCC3COC(C)(C)OC3)S(C)(=O)=O)cc2nn1-c1ccc(Cl)cc1
Key: 30

Exercise: Look at this compound and give its reported IC50. CNC(=O)c1c2cc(C3CC3)c(N(CCCNC(=O)C3CCC3)S(C)(=O)=O)cc2nn1-c1ccc(Br)cc1
Key: 50

Exercise: Look at this compound and give its reported IC50. CNC(=O)c1c2cc(C3CC3)c(N(CCCNC(=O)C(F)(F)F)S(C)(=O)=O)cc2nn1-c1ccc(Br)cc1
Key: 40
